Data provenance: paper PMC5703966

Give clearance for every item shown.
# assayInfo: Systemic clearance and pharmacokinetics after i.v. dose in C57BL/6 mice aging 2 months
# Format: in vivo, mouse
# protocolConditions: male, C57BL/6, mouse, plasma, iv, 2 mg/kg, i.v. 2.0 mg/kg; read-out: Cl p (converted)
Numbers only, in mL/min/kg.

COCCOCCn1c2ccccc2c2cc(/C=C/c3cc[n+](CCO)c4ccccc34)ccc21 10.7

clearance lookup needed for COCCOCCn1c2ccccc2c2cc(/C=C/c3cc[n+](C)c4ccccc34)ccc21.[I-] , thanks.
12.5

---

# assayInfo: Systemic clearance and brain distribution in WT and 3 × Tg-AD mice (8 months)
# Type: in vivo, mouse
# protocolConditions: 3×Tg-AD (B6;129-Psen1tm1Mpm Tg(APPSwe,tauP301L)1Lfa/Mmjax), mouse, plasma, iv; AD mice 8 months, 1 mg/kg i.v.; read-out: Vdss
Answer each item with its documented Vd.
Numbers only, in L/kg.

COCCOCCn1c2ccccc2c2cc(/C=C/c3cc[n+](CCO)c4ccccc34)ccc21 2.3

Consider now this further compound.
Entry COCCOCCn1c2ccccc2c2cc(/C=C/c3cc[n+](C)c4ccccc34)ccc21.[I-] : reported Vd = ?
1.3
